- study.system: VEGF165 (vascular endothelial growth factor, 165 aa form) (Homo sapiens, UniProt P15692-4 P15692-4:27-191)
- Sequence (P15692 other isoform, or with tags, fused parts or gaps): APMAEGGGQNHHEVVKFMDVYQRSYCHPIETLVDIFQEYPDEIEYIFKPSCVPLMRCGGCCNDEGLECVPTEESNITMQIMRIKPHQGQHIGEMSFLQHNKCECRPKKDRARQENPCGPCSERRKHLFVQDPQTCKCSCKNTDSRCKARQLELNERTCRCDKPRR
- assay.details: filter
- conditions.used: tags: gift of N. Ferrara, Genentech; chain copies: 2 stated
- From the text: Nitrocellulose Filter Binding Assays. Oligonucleotides bound to proteins can be effectively separated from the unbound species by filtration through nitrocellulose membrane filters (Yarus, M. and Berg, P. (1970) Anal. Biochem. 35:450-465; Lowary, P. T. and Uhlenbeck, O. C. (1987) Nucleic Acids Res. 15:10483-10493; Tuerk, C. and Gold, L. (1990) supra). […] The filters were then dried under an infrared lamp and counted in a scintillation counter. […]
reported.endpoint: pKd
Numbers only, as −log10 of the molar value.

Identify measured pKd corresponding to ACCCUGAUGGUAGACGCCGGGGUG (ssRNA, 2'-NH2 at all C and U; G9,A12,A14 2:1 mixture 2'-OMe:2'-OH) [NX-203] 9.70
